The values you see were collected from paper PMC8558862.

- Tgt: T1, human recombinant tropoelastin (human, UniProt P15502 27-786)
- T1 construct: tropoelastin (soluble elastin precursor), human, recombinant; also called TE; source: bought: Advanced BioMatrix (Cat. No. 5052-1MG, Batch No. 7932)
- T1 sequence (looked up): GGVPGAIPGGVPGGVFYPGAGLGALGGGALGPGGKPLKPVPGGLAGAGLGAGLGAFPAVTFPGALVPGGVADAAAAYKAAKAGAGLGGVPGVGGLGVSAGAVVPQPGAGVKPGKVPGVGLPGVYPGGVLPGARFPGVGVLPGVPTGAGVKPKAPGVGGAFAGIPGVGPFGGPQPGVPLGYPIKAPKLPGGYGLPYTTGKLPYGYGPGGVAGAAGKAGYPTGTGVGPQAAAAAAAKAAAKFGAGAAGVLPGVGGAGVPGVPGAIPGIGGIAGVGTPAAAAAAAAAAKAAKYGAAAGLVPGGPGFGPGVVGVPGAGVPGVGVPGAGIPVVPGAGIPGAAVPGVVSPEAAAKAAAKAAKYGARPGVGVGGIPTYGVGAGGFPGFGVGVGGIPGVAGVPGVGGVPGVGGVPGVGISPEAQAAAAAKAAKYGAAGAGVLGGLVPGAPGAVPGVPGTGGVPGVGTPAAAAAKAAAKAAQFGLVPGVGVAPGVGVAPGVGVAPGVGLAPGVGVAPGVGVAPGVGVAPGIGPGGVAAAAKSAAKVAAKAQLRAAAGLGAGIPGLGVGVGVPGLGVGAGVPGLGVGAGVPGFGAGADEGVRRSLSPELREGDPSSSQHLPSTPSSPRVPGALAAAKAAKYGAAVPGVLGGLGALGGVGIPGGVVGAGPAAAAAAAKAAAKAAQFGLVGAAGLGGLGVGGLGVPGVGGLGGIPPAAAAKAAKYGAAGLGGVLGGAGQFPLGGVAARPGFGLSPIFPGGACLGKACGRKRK
- Assay Info: SPR; Biacore 2000; tropoelastin immobilised on a CM5 chip by amine coupling (3500-5000 R.U.); analyte injected at 20 uL/min for 3 min at 25 °C in HEPES running buffer (pH 7.4, HBS-P) or 10 mM HEPES; control flow cell subtracted; 1:1 Langmuir fit; triplicate
- Run Parameters: both partners purified
Ends that are not written are not given here. (Gd-DOTA)4‑MI = maleimide-bearing lysine-based tetramer of four Gd(III)-DOTA-monoamide chelates
# Lookup of reported Kd keyed by entry
The answer is to be given in µM; state only the numeric part.

Binder: C((Gd-DOTA)4‑MI)VVGSPSAQDEASPLS (also: Gd(III) chelates, thiol/maleimide conjugation, also called tetrameric Gd4-TESMA probe; source: synthetic peptide (Fmoc SPPS), reacted with [Gd-DOTA]4-MI, purified by semipreparative HPLC) [Gd4-TESMA]
Measured Result: 41

// below: Kd requested for another binder
Hello, please tell me recorded Kd for this one: VVGSPSAQDEASPLS (also: single Gd-DOTA monoamide unit conjugated, site not given here, also called monomeric Gd-TESMA probe; source: bought: For Peptide Protein Research Limited (Fareham, UK)) [Gd-TESMA]
28
